Reported thermal stability score values follow for various sequences
- Tested on: HeLa Kyoto;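 further: synchronized HeLa Kyoto cells, proteins quantified by TMT10plex mass spectrometry, three biological replicates, mitosis taken 0.5 h after nocodazole release, G1/S directly after double thymidine block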
- TEST NAME: thermal stability score vs G1/S (z-score of summed log2 fold changes over temperatures); higher = more thermally stable than in G1/S
- CONDITION CONTEXT: cell cycle stage: early G1 (4.5 h after nocodazole release)

SEQUENCE ENTRY	thermal stability score
MSGEPGQTSVAPPPEEVEPGSGVRIVVEYCEPCGFEATYLELASAVKEQYPGIEIESRLGGTGAFEIEINGQLVFSKLENGGFPYEKDLIEAIRRASNGETLEKITNSRPPCVIL [MIEN1]	-1.21
MSGCDAREGDCCSRRCGAQDKEHPRYLIPELCKQFYHLGWVTGTGGGISLKHGDEIYIAPSGVQKERIQPEDMFVCDINEKDISGPSPSKKLKKSQCTPLFMNAYTMRGAGAVIHTHSKAAVMATLLFPGREFKITHQEMIKGIKKCTSGGYYRYDDMLVVPIIENTPEEKDLKDRMAHAMNEYPDSCAVLVRRHGVYVWGETWEKAKTMCECYDYLFDIAVSMKKVGLDPSQLPVGENGIV [APIP]	-1.32
MGCDGGTIPKRHELVKGPKKVEKVDKDAELVAQWNYCTLSQEILRRPIVACELGRLYNKDAVIEFLLDKSAEKALGKAASHIKSIKNVTELKLSDNPAWEGDKGNTKGDKHDDLQRARFICPVVGLEMNGRHRFCFLRCCGCVFSERALKEIKAEVCHTCGAAFQEDDVIMLNGTKEDVDVLKTRMEERRLRAKLEKKTKKPKAAESVSKPDVSEEAPGPSKVKTGKPEEASLDSREKKTNLAPKSTAMNESSSGKAGKPPCGATKRSIADSEESEAYKSLFTTHSSAKRSKEESAHWVTHTSYCF [RTFDC1]	1.24

Reference for the values: the supplement of paper PMC5998384
